Reported values: Ki for human CB2 receptor (CNR2) (Homo sapiens (Human), UniProt P34972), one per item.
measured.parameter: Ki (nM)

compound	reported.value
CC(C)C[C@H](NC(=O)c1ccc(N2CCCC2)c(OCC2CC2)n1)C(=O)OCCCF [Example 15]	40

[1] CCC(CC)(COCCCF)NC(=O)c1ccc(N2CC(OC)C2)c(OCC2CC2)n1 [Example 36]
[2] CCC(CC)(COCF)NC(=O)c1ccc(N2CC(OC)C2)c(OCC2CC2)n1 [Example 34]
[3] COC1CN(c2ccc(C(=O)N[C@@H](CC(C)C)C(=O)OCF)nc2OCC2CC2)C1 [Example 10]
Q: Rank the 3 compounds: largest Ki first, smallest last. A ranking is expressed here by listing the labels in the requested order.
A: 3, 1, 2
(3: 336 nM, 1: 68 nM, 2: 33 nM)

----------
tested.on: human CB2 receptor (CNR2) (Homo sapiens (Human))
measured.parameter: Ki (µM)

# annotated cases, reported Ki shown
compound	unit.of.measure	Ki
CCC(CC)(NC(=O)c1ccc(N2CC(F)(F)C2)c(OCC2CC2)n1)C(=O)OCF [Example 4]	µM	0.006
CCC(CC)(NC(=O)c1ccc(N2CC(F)(F)C2)c(OCC2CC2)n1)C(=O)OCCF [Example 5]	µM	0.007

[P] COC1CN(c2ccc(C(=O)N[C@H](COCF)C(C)C)nc2OCC2CC2)C1 [Example 29]
[Q] COC1CN(c2ccc(C(=O)N[C@H](COCCF)CC(C)C)nc2OCC2CC2)C1 [Example 27]
[R] CC(C)[C@@H](COCF)NC(=O)c1ccc(N2CCCC2)c(OCC2CC2)n1 [Example 19]
Q: Arrange items by their Ki values in increasing order. A ranking is expressed here by listing the labels in the requested order.
A: Q, R, P

----------
Reported values: Ki for human CB2 receptor (CNR2) (Homo sapiens (Human), UniProt P34972), one per item.
// return numeric value only (unit: nM, not printed)

# annotated cases, reported Ki shown
molecule	tested.on	unit.of.measure	Ki
CCC(CC)(NC(=O)c1ccc(N2CCCC2)c(OCC2CC2)n1)C(=O)OCCF [Example 9]	human CB2 receptor (CNR2) (Homo sapiens (Human), UniProt P34972)	nM	3
CCC(CC)(COCCF)NC(=O)c1ccc(N2CC(OC)C2)c(OCC2CC2)n1 [Example 35]	human CB2 receptor (CNR2) (Homo sapiens (Human), UniProt P34972)	nM	62

Q: Give recorded Ki with human CB2 receptor (CNR2) (Homo sapiens (Human), UniProt P34972) for the following molecule: C[C@@H](COCCF)NC(=O)c1ccc(N2CCCC2)c(OCC2CC2)n1 [Example 23]
Sequence (P34972 whole entry): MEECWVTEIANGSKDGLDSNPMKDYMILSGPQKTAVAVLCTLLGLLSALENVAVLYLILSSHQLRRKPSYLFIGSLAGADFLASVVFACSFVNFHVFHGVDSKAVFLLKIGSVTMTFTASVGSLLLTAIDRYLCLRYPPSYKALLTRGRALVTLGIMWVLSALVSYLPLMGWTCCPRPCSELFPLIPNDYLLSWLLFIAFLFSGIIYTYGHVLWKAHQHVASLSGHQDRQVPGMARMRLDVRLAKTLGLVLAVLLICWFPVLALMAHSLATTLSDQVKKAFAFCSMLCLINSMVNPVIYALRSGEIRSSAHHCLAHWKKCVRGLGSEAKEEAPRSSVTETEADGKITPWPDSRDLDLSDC
A: 490

Q: Give recorded Ki with human CB2 receptor (CNR2) (Homo sapiens (Human), UniProt P34972) for the following molecule: CCC(CC)(NC(=O)c1ccc(N2CC(OC)C2)c(OCC2CC2)n1)C(=O)OCF [Example 1]
A: 2

Q: Give recorded Ki with human CB2 receptor (CNR2) (Homo sapiens (Human), UniProt P34972) for the following molecule: CCC(CC)(NC(=O)c1ccc(N2CC(OC)C2)c(OCC2CC2)n1)C(=O)OCCCF [Example 3]
A: 6

----------
Reported values: pKi for human CB2 receptor (CNR2) (Homo sapiens (Human), UniProt P34972), one per item.
Quick note: pKi means taking -log10 of the concentration in moles per liter.

# annotated cases, reported pKi shown
compound	pKi
COC1CN(c2ccc(C(=O)N[C@H](COCCCF)C(C)C)nc2OCC2CC2)C1 [Example 31]	6.61
COC1CN(c2ccc(C(=O)N[C@@H](C)COCCF)nc2OCC2CC2)C1 [Example 32]	5.51
CCC(CC)(NC(=O)c1ccc(N2CCCC2)c(OCC2CC2)n1)C(=O)OCCCF [Example 7]	8.30

Q: Give recorded pKi with human CB2 receptor (CNR2) (Homo sapiens (Human), UniProt P34972) for the following compound: CCC(CC)(NC(=O)c1ccc(N2CCCC2)c(OCC2CC2)n1)C(=O)OCF [Example 8]
A: 8.70

Q: Give recorded pKi with human CB2 receptor (CNR2) (Homo sapiens (Human), UniProt P34972) for the following compound: CC(C)[C@@H](COCCF)NC(=O)c1ccc(N2CCCC2)c(OCC2CC2)n1 [Example 20]
A: 7.22

----------
Reported values: Ki for human CB2 receptor (CNR2) (Homo sapiens (Human), UniProt P34972), one per item.
measured.parameter: Ki (µM)

CC(C)[C@@H](COCCCF)NC(=O)c1ccc(N2CCCC2)c(OCC2CC2)n1 0.156
CCC(CC)(NC(=O)c1ccc(N2CC(F)(F)C2)c(OCC2CC2)n1)C(=O)OCCCF 0.019
CC(C)C[C@H](COCCF)NC(=O)c1ccc(N2CCCC2)c(OCC2CC2)n1 0.288
CC(C)C[C@@H](COCCCF)NC(=O)c1ccc(N2CCCC2)c(OCC2CC2)n1 0.04
CC(C)C[C@@H](COCCF)NC(=O)c1ccc(N2CCCC2)c(OCC2CC2)n1 0.01
CC(C)C[C@@H](COCCF)NC(=O)c1ccc(N2CC(F)(F)C2)c(OCC2CC2)n1 0.024

[1] COC1CN(c2ccc(C(=O)N[C@@H](CC(C)C)C(=O)OCCCF)nc2OCC2CC2)C1
[2] COC1CN(c2ccc(C(=O)N[C@@H](C)COCCCF)nc2OCC2CC2)C1
Q: Of 1 and 2 , which shows the smaller Ki value? Give the chosen item's label as your response.
A: 1
(1: 0.046 µM, 2: 2.81 µM)

----------
Reported values: Ki for human CB2 receptor (CNR2) (Homo sapiens (Human)), one per item.
// return numeric value only (unit: nM, not printed)

CC(C)C[C@@H](COCF)NC(=O)c1ccc(N2CCCC2)c(OCC2CC2)n1 8

Q: Give recorded Ki with human CB2 receptor (CNR2) (Homo sapiens (Human)) for the following compound: COC1CN(c2ccc(C(=O)N[C@H](COCCCF)CC(C)C)nc2OCC2CC2)C1
A: 31

Q: Give recorded Ki with human CB2 receptor (CNR2) (Homo sapiens (Human)) for the following compound: CC(C)C[C@H](NC(=O)c1ccc(N2CCCC2)c(OCC2CC2)n1)C(=O)OCF
A: 63

Value source: patent US20240383872A1
